// growth inhibition lookup, one value per entry
Experiment: NCI Yeast Anticancer Drug Screen. Data for the cln2 rad14 strain (AID 165);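 further: 0% = growth equal to vehicle treated cultures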
Conditions: S. cerevisiae cln2 rad14 strain, at 5.0 µM (retest, dose inferred, filed as 0.5), hits give high values
The panel holds about 79,000 compounds, 15% with a hit somewhere; the sample as a whole holds those more often.
Expressed in %, but write only the number.

| Compound | Value Units | Recorded Number |
| --- | --- | --- |
| O=C1/C(=C/c2ccccc2)CCCc2ccccc21 | % | -10 |
| CN(C)c1ccc(/C=C(\C#N)c2c(F)cccc2F)cc1 | % | 3 |
| O=C1NOCC1N=Cc1cc(Cl)ccc1O (stereo not drawn) | % | 0 |
| CCC(=O)/C(=C\I)c1ccccc1 | % | 8 |
| CCN(CC)CCOc1ccc(/C=C(\C#N)c2ccc(OC)cc2)cc1 | % | 34 |

[Q] Complete the entry with growth inhibition for CC1CN(CC(O)c2ccc(Br)cc2)CC(C)O1 (stereo not drawn)
[A] 8

[Q] Complete the entry with growth inhibition for O=C(c1ccccc1)c1ccccc1S(=O)(=O)Nc1ccccc1
[A] -8

[Q] Complete the entry with growth inhibition for O.O.O=C(O)C(O)C(O)C(OC1OC(CO)C(O)C(O)C1O)C(O)CO.O=C(O)C(O)C(O)C(OC1OC(CO)C(O)C(O)C1O)C(O)CO.[NH-]C1CCCCC1[NH-].[Pt+2] (stereo not drawn)
[A] 2

[Q] Complete the entry with growth inhibition for O=C(/C=C/C(=O)OCCCl)OCCCl
[A] 4

[Q] Complete the entry with growth inhibition for O=C(Nc1ccccc1)c1cc(Cl)ccc1O
[A] 24

[Q] Complete the entry with growth inhibition for CCC[CH2][Sn]1([CH2]CCC)[O]C(=O)CN=Cc2c(ccc3ccccc23)[O]1
[A] 48

Data credit: PubChem BioAssay (NCI)
